Catalogue of Maximum_MFI readings, one per entry.
target: T1, human MSLN-R3 on HEK293T-hMSLN-R3 recombinant cells (human, UniProt Q13421 487-606); assay: FACS, HEK293T-hMSLN-R3 cells
T1 construct: the C-terminal limit is uncertain; also called human MSLN-R3 membrane protein
T1 sequence (Q13421 495-614): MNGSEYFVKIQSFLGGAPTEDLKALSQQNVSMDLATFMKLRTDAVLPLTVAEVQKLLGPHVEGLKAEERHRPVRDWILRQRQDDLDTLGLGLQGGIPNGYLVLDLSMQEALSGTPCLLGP
Form entry: value (MFI) — number only.

>>> numeric_readout("Tab111 (scFv, not shown: small tags and cut ends, also called YP218 VL-(G4S)3-VH-his antibody; positive control) scFv: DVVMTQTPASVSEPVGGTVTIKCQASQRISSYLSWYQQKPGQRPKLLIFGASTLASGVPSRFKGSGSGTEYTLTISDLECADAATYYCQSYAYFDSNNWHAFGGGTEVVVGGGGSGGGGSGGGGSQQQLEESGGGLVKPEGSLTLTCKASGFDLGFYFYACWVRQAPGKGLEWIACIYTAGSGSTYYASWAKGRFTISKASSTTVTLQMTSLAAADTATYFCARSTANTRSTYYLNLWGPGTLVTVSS")
3070

Could you please provide reported Maximum_MFI for F3.80.22-H7 (scFv, not shown: small tags and cut ends, also called S009-F3.80.22 humanized antibody VL1a + VH3) scFv: DIVMTQTPLSLPVTPGEPASISCRSSQSLEHNDGNTYLHWFLQKPGQSPQLLIYKVSNRFSGVPDRFSGSGSGTDFTLKISRVEAEDVGVYYCSQSTHVPFTFGQGTKLEIKGGGGSGGGGSGGGGSEVQLVQSGAEVKKPGATVKISCKASGYTFTDYEIHWVQQAPGKGLEWMGAFDPEIGGSAYNQKFKDRVTITADKSTSTAYMELSSLRSEDTAVYYCTDYYGSSSGYFDVWGTGTTVTVSS ? Thanks! 1530

Could you please provide reported Maximum_MFI for F3.80.22-H3 (scFv, not shown: small tags and cut ends, also called S009-F3.80.22 humanized antibody VL1 + VH3) scFv: DIVMTQTPLSLPVTPGEPASISCRSSQSLEHNNGNTYLHWFLQKPGQSPQLLIYKVSNRFSGVPDRFSGSGSGTDFTLKISRVEAEDVGVYYCSQSTHVPFTFGQGTKLEIKGGGGSGGGGSGGGGSEVQLVQSGAEVKKPGATVKISCKASGYTFTDYEIHWVQQAPGKGLEWMGAFDPEIGGSAYNQKFKDRVTITADKSTSTAYMELSSLRSEDTAVYYCTDYYGSSSGYFDVWGTGTTVTVSS ? Thanks! 1750
